Recorded log10(Ki), one value per entry.
Assay: Displacement of [125I]IMPY from aggregated amyloid beta (1-42) by gamma counting
MEASURED_PARAMETER: log10(Ki) (log10 of the value in nM)

1) CN(C)c1ccc(-c2nnc(-c3ccc(I)cc3)o2)cc1: 1.30
2) COc1ccc(-c2nnc(-c3ccc(I)cc3)o2)cc1: 1.66
3) Oc1ccc(-c2nnc(-c3ccc(I)cc3)o2)cc1: 2.36
4) OCCOCCOCCOc1ccc(-c2nnc(-c3ccc(I)cc3)o2)cc1: 2.41
5) OCCOCCOc1ccc(-c2nnc(-c3ccc(I)cc3)o2)cc1: 2.54
6) OCCOc1ccc(-c2nnc(-c3ccc(I)cc3)o2)cc1: 2.45

* * *

Recorded logD, one value per entry.
Assay: Octanol-phosphate buffer partition coefficient, log P at pH 7.4 by gamma counting of radioactivity
MEASURED_PARAMETER: logD

1. CN(C)c1ccc(-c2nnc(-c3ccc(I)cc3)o2)cc1: 2.43
2. COc1ccc(-c2nc(-c3ccc(I)cc3)no2)cc1: 3.37
3. COc1ccc(-c2nnc(-c3ccc(I)cc3)o2)cc1: 2.58
4. CN(C)c1ccc(-c2nc(-c3ccc(I)cc3)no2)cc1: 3.22
